Source listed as ChEMBL document CHEMBL1156428.

Can you tell me pIC50 for the items I'm about to list?
Biological target: Human immunodeficiency virus type 1 reverse transcriptase (Human immunodeficiency virus 1, UniProt Q72547)
Assay: Inhibition of HIV1 RT mediated DNA-dependent DNA synthesis initiation using RNA PPT primed substrate by scintillation proximity assay
Numbers only, as −log10 of the molar value.

Ask | Item under review: CCc1cc(NCc2nc3c(Cl)ccc(Cl)c3o2)c(O)nc1C . Reported pIC50?
Reply | 6.37

Proceeding to the next compound to report its pIC50.
Ask | Item under review: Cc1cn([C@H]2C[C@H](N=[N+]=[N-])[C@@H](CO[P@](=O)(O)O[P@](=O)(O)OP(=O)(O)O)O2)c(=O)[nH]c1=O [ZIDOVUDINE TRIPHOSPHATE] . Reported pIC50?
Reply | 6.49
